Assign ELISA INS to each entry below.
Biological target: T1, SARS-CoV-2 C14S,C23S,C73S NSP9 (triSer-Nsp9) (SARS-CoV-2, UniProt P0DTC1 4141-4253)
T1 construct: also called NSP (dissolved in ammonium acetate); INS (dissolved in DMSO/PBS)
T1 chain: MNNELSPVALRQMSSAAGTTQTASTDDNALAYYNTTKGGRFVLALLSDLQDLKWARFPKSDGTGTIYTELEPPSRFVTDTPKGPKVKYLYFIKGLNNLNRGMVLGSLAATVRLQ
Assay: ELISA, periplasmic extract; Nsp9 in DMSO/PBS (INS) coated

Ask: Quick check: ELISA INS of 2INS61 (VHH) VHH: QVQLQESGGGLVQAGGSLRLSCAASGSIFSINTMGWYRQAPGKQRELVAAITSGGSTNYADSVKGRFTISRDNAKNTVHLQMNSLKPEDTAVYYCNVVEGWGPPVGYWGQGTQVTVSS ?
Reply: 1.84

Ask: Which ELISA INS reading was recorded for the binder 2NSP23 (VHH) VHH: QVQLQESGGGLVQPGGSLRLSCAASGLAFSMYTMGWFRQAPGKEREFVAMIISSGDSTDYADSVKGRFTISRDNGKNTVYLQMDSLKPEDTAVYYCAAPKFRYYFSTSPGDFDSWGQGTQVTVSS ?
Reply: 1.72

Ask: For 3INS39 (VHH) VHH: QVQLQESGGGLVQAGGSLRVSCEVSGIMFGINTMGWYRQAPGKQRELVAHITSSGSTNYADSVKGRFTISRDNAKKTVYLQMNSLKPEDTAVYYCNVVAGWGPPPGYWGQGTQVTVSS , what is its reported ELISA INS?
Reply: 2.49

Ask: Param item = 2NSP90 (VHH) VHH: QVQLQESGGGLVQTGDSLRLSCAVSGRTFSTYSVGWFRQAPGKEREFVALRWSGGTTYYADSVVGRFTVSRDNAKNTVYLEMNSLKPEDTAVYYCAADRGSGSYSPTYRWDYWGQGTQVTVSS ; retrieve measured ELISA INS.
Reply: 1.98
